Provide the reported concentration at 3 weeks of each item.
assay explanation: in vivo
conditions used: female, rhesus monkey, Tissue concentration, Cervical lymph nodes
Give just the number in ng/g; leave the unit off.

Task: # get_value(readout='concentration at 3 weeks', item= Cc1cc(/C=C/C#N)cc(C)c1Nc1ccnc(Nc2ccc(C#N)cc2)n1 )
Output: 1770

Task: Follow-up entry: C[C@H]1CO[C@@H]2Cn3cc(C(=O)NCc4ccc(F)cc4F)c(=O)c(O)c3C(=O)N12
Output: 583

----------
assay explanation: Drug concentrations in cerebrospinal fluid (CSF)
Type: in vivo, Rhesus macaques
conditions used: rhesus monkey, CSF, other: oral (FTC) and intramuscular (CAB LA); ~ 6 months of treatment, 4 weeks after the previous CAB LA/RPV LA injection; read-out: CSF, median (range)
Method: A cocktail of methanol containing internal standards was added to precipitate proteins. […] Drug concentrations were calculated from a standard curve with a range of 0.5–2000 ng/mL using Analyst software. […] Plasma concentrations of CAB were measured weekly. Plasma concentrations of RPV were measured 4 (9 observations), 2 (2 observations), or 3 (2 observations) weeks after the previous injection. […]
quantity measured: concentration at 4 weeks (ng/mL)
Numbers only; they are read as ng/mL.

Task: Bench note: what concentration at 4 weeks did C[C@H]1CO[C@@H]2Cn3cc(C(=O)NCc4ccc(F)cc4F)c(=O)c(O)c3C(=O)N12 [CAB, cabotegravir] show?
Output: 5.95

Task: Now consider Cc1cc(/C=C/C#N)cc(C)c1Nc1ccnc(Nc2ccc(C#N)cc2)n1 [RPV, rilpivirine] and answer again.
Output: 4.06

Task: Next up: Nc1nc(=O)n([C@@H]2CS[C@H](CO)O2)cc1F [FTC, emtricitabine]
Output: 2.36

----------
assay explanation: Drug concentrations in cerebrospinal fluid (CSF)
Format: in vivo, Rhesus macaques
conditions used: rhesus monkey, CSF and plasma, intramuscular; read-out: CSF-to-plasma ratio
quantity measured: Kp at 4 weeks
In your answer, state the number alone without any accompanying words.

Task: Find the recorded Kp at 4 weeks belonging to C[C@H]1CO[C@@H]2Cn3cc(C(=O)NCc4ccc(F)cc4F)c(=O)c(O)c3C(=O)N12 and report it.
Output: 0.006

Task: Query Cc1cc(/C=C/C#N)cc(C)c1Nc1ccnc(Nc2ccc(C#N)cc2)n1 next
Output: 0.028

----------
Record form. Attribute: concentration at 3 weeks. Fill in for each entry.
assay explanation: in vivo
conditions used: female, rhesus monkey, median concentration in the GI tract
// units = ng/g; emit number, no label

Task: Bench note: what concentration at 3 weeks did Cc1cc(/C=C/C#N)cc(C)c1Nc1ccnc(Nc2ccc(C#N)cc2)n1 show?
Output: 666

Task: Try the molecule C[C@H]1CO[C@@H]2Cn3cc(C(=O)NCc4ccc(F)cc4F)c(=O)c(O)c3C(=O)N12
Output: 695

----------
assay explanation: in vivo
conditions used: female, rhesus monkey, Tissue concentration, Rectum
quantity measured: concentration at 3 weeks (ng/g)
Field: numeric (ng/g). Do not append units.

Task: Record request: concentration at 3 weeks value, item Cc1cc(/C=C/C#N)cc(C)c1Nc1ccnc(Nc2ccc(C#N)cc2)n1
Output: 447

Task: Repeat with C[C@H]1CO[C@@H]2Cn3cc(C(=O)NCc4ccc(F)cc4F)c(=O)c(O)c3C(=O)N12
Output: 773

----------
assay explanation: in vivo
conditions used: female, rhesus monkey, median concentration in lymphoid tissues
Protocol: RT-SHIV was selected for the study since it contains the HIVHXBc2 RT that is sensitive to RPV. RT-SHIV was obtained through the NIH AIDS Reagent Program, Division of AIDS, NIAID, NIH[17]–[19]. […] A cocktail of methanol containing internal standards was added to precipitate proteins. […] Drug concentrations were calculated from a standard curve with a range of 0.5–2000 ng/mL using Analyst software. […] Plasma concentrations of CAB were measured weekly. […]
Could you please report measured concentration at 3 weeks for the items listed next?
Number first, unit second.

Task: Reported concentration at 3 weeks for Cc1cc(/C=C/C#N)cc(C)c1Nc1ccnc(Nc2ccc(C#N)cc2)n1 [RPV, rilpivirine] : what is it?
Output: 773 ng/g

Task: Another compound to look at: C[C@H]1CO[C@@H]2Cn3cc(C(=O)NCc4ccc(F)cc4F)c(=O)c(O)c3C(=O)N12 [CAB, cabotegravir]
Output: 975 ng/g
